Data credit: ChEMBL document CHEMBL5620416

- System: PANC-1
- Assay notes: Cytotoxicity against human PANC-1 cells incubated for 72 hrs by MTT assay
- Assay type: functional, cell-based
- Measurement parameters: PANC-1, 72 h
Quantity name: IC50

>>> observed("O=C1c2cccc3cccc(c23)C(=O)N1CCCc1nnc(CCn2nc(Cc3ccc(F)cc3)c3ccccc3c2=O)o1")
"> 25 µM"
>>> observed("O=C1c2cccc3cccc(c23)C(=O)N1CCSc1nnc(CCCn2nc(Cc3ccc(F)cc3)c3ccccc3c2=O)o1")
"> 25 µM"
>>> observed("O=C1c2cccc3cccc(c23)C(=O)N1CCCc1nnc(Cn2nc(Cc3ccc(F)cc3)c3ccccc3c2=O)o1")
"> 25 µM"
>>> observed("O=C1c2cccc3cccc(c23)C(=O)N1CCSc1nnc(Cn2nc(Cc3ccc(F)cc3)c3ccccc3c2=O)o1")
"4 µM"
>>> observed("O=C1c2cccc3cccc(c23)C(=O)N1CCSc1nnc(CCCn2nc(Cc3ccccc3)c3ccccc3c2=O)o1")
"> 25 µM"
>>> observed("O=C1c2cccc3cccc(c23)C(=O)N1CCSc1nnc(Cn2nc(Cc3ccccc3)c3ccccc3c2=O)o1")
"> 25 µM"
>>> observed("O=C1c2cccc3cccc(c23)C(=O)N1CCSc1nnc(CCn2nc(Cc3ccc(F)cc3)c3ccccc3c2=O)o1")
"13 µM"
>>> observed("COc1ccc(Cc2nn(CCc3nnc(SCCN4C(=O)c5cccc6cccc(c56)C4=O)o3)c(=O)c3ccccc23)cc1")
"> 25 µM"
>>> observed("O=C1NC(=O)c2cccc3cccc1c23")
"20 µM"
